Molecular target: T1, EsCas13d, nuclease-dead (Eubacterium siraeum, UniProt B0MS50, R295A;H300A;R849A;H854A)
T1 sequence: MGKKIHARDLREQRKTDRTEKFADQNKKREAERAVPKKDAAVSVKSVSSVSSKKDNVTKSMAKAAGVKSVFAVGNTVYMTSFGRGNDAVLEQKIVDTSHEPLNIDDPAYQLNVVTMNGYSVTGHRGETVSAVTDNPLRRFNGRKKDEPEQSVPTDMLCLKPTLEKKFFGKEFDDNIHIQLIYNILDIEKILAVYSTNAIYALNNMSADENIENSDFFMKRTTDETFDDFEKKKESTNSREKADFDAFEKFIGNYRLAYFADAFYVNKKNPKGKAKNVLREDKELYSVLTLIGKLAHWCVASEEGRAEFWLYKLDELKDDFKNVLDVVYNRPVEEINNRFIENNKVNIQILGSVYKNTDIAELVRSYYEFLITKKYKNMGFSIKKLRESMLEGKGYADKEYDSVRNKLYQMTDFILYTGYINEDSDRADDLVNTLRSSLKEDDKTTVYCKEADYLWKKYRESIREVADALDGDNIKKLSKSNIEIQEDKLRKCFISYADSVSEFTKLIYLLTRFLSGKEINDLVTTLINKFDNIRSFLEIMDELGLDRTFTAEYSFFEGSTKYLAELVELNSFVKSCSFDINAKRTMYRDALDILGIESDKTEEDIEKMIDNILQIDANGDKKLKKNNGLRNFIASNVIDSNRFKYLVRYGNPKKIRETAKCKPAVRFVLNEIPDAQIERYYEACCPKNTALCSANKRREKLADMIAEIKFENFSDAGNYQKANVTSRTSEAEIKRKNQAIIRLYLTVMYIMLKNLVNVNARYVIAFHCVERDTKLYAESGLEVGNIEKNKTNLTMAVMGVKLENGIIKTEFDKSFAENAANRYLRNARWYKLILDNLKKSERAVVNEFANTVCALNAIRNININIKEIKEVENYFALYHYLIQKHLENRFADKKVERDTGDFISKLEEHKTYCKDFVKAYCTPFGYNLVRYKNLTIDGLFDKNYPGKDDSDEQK
Assay: crRNA (strand 1, pre-loaded); Mg2+; 40 mM Tris-HCl pH 7.5, 150 mM NaCl, 6 mM MgCl2, 1 mM DTT, 0.1% Tween-20, 0.2 mg/ml BSA; 25 C; 10 min per concentration, then washed
Conditions: tags: His6-TwinStrep-SUMO cleaved; N-terminal SNAP kept (SNAP-Surface 488); label: 3' end held by stalled T7 RNA polymerase
pKd: −log10 of the molar value.
Recorded pKd, one value per entry.
metric: pKd

target 3 insA 3' of 10,insA 3' of 7 (mixed) RNA 1: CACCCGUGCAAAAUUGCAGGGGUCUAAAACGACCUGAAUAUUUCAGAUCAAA RNA 2: GGGAAUGGAUCCACAUCUACGAAUUCGUUUUUGAUCUGAAAUAAUUACAGGUCUGCAGAUCGGAAGAGCACACGU
7.28
target 1 G12A,U19C (mixed) RNA 1: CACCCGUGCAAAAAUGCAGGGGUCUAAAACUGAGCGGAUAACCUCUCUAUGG RNA 2: GGGAAUGGAUCCACAUCUACGAAUUCGUACCACAGAGAGAUUAUCCGCUCACCGAGAUCGGAAGAGCACACGU
7.66
target 1 insU 3' of 20,insU 3' of 6 (mixed) RNA 1: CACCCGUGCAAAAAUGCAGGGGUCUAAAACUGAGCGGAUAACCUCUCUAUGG RNA 2: GGGAAUGGAUCCACAUCUACGAAUUCGUACCAUUAGAGAGGUUAUCCUGCUCACCGAGAUCGGAAGAGCACACGU
7.81
